// provenance: the DeepSol protein solubility set

- run.description: soluble on expression in E. coli; label from the status in PepcDB or PDB records
experimental.endpoint: soluble on expression in E. coli

seq.string	measured
MAALFQEASSCPVCSDYLEKPMSLECGCTVCLKCINSLQKEPHGEDLLCCCCSMVSQRNKIRPNRQLERLVSHIKELEPKMKKILQMNPRMRKFQVDMTLDADTANNFLLISDDLRSVRSGLITQNRQDLAERFDVSVCILGSPRFTCGRHYWEVDVGTSTEWDLGVCRESVHCKGKIQLTTELGFWTVSLRDGSRLSASTVPLTFLLVDRKLQRVGIFLDMGMQNVSFFDAESGSHVYTFRSVSAEEPLRPFLAPSIPPNGDQGVLSICPLMNSGTTDAPVRPGEAK	soluble
MAEAKQWDVKQLDRIVEKMIDTVQHSKDEIFRIGEQSRQEHDHLLRELEEVKRLTVQAIEEADQLEMKARQARRRLSEVSQNFSTHSEQDIREAYEQAHELHMKLTMVREREKQLRLRRDELERRLASLAQIIERADYLVGQITVVLHYLNSDFRQVGELIEGAKQKQEFGLKIIEAQEEERRRLSREIHDGPAQLLAHVLLRSDLVEKVIKERGTEAAIAEIRDFRKMVRSALSEVRRIIYDLRPMALDDLGLVPTLKKYLQTTEEYNKGVHISFVHIGEEIRLPSRMEAAVFRLVQESVQNALKHAEARHIDVKMEVTCDHLLVSVKDDGKGFDPSVKKENAFGLIGMRERVELLGGTLDIRSKIGSGTTVFIRVPLDRSTDKTNKEERKR	not soluble
GTKMEPMEYLVVDVPSEFQGAIIEKMGPRKGEMTSLQPMGETVRLEFVVPARGLIGLRGELLTETRGTAVMTHTFHDYAPYKGDIPGRKNGVLIAMELGETTAYALDALQPRGILFIGPGVEVYGGMI	not soluble
MESTIEGEDENYVKVYITDNLDSEHELTIDKNSGDIPYHQCDAYADDANRRTSEENEYNNQARRYAKYYVFAQRGYDTVEHIENPAYVDAVRRAIADLSPAEFKRYFGALYRQLRSHHDDTERPRELPSGVRKPDAVVYEPEIYLGLEAVGEDVAERAQALATAHGFDLEESAEVQPVSELSDETLSRWKAFGDDLAAIVTREDLTTNLTITGVSGLHIGYPNRLGKHEVDEADSPFTHQADARLSLLPYAPESFDEFPAYLDHHLRCQVRDCFLKMGVVPPEEFHVVGFGKFRDSRRYDHFEMYPEVHKRDGNHTPLLG	not soluble
MKATVSTIDNRGNLGKVLKDVTSKDSIKGYTVAAATAGVAQGLNYNPSAMGLDAKSLQTVAVKVTADALIKTAVYGGSFKDNLASAAAGTAASIGGAYGAGKIGDLGLTEGGLAKIALHAGLGGLLSEAMGGDFRTGAIAGGANELLVGVLGDKLEHHHHHH	not soluble
MGSDKIHHHHHHMATLGANASLYSEQHRITYYECDRTGRATLTTLIDIAVLASEDQSDALGLTTEMVQSHGVGWVVTQYAIDITRMPRQDEVVTIAVRGSAYNPYFAYREFWIRDADGQQLAYITSIWVMMSQTTRRIVKILPELVAPYQSEVVKRIPRLPRPISFEATDTTITKPYHVRFFDIDPNRHVNNAHYFDWLVDTLPATFLLQHDLVHVDVRYENEVKYGQTVTAHANILPSEVADQVTTSHLIEVDDYYCCEVTIQWRTLPEPIQ	not soluble
MGSDKIHHHHHHMIIDINMHHLPEDLFTNEKILDGFLSTAPRSYGEIASLGTIPETGKRQIILEKPKGYQNLNYVEGDYSLEAKLQAMDDNGVDKAILRVPVWQEWLKVDTCKIVNDNAAEMCKRSAGRLYATACVPPWGGKDNLYELERCVKDLGMVGVQLACHYGQLYLDDEAFKPYMKVLNELNVPVVVHHTPLPVYWQSVYEYTNLRRELGRIIDQATAVGRELFSGMFEEFPNLKFIHTMFGGNWFANYNLLMPHKGKKEEAMLRLDISESDRIKMYLKNNIYFDMTHPASWGKDQVECAIKVCGADHVLFGSSFPVFYNWMSQGIECVKSLDITEKERELITSGNAIRLFKLDV	not soluble
MKQEFVAAIEIDGTGRIHVTPGESQFPYIYREAMEVSWNESTRSLHSPVPREWSYAQWLQQIFAAASEQGVKLVLGPNTRWVNVPNELRAELTHAAAA	soluble
MSTKYLFIYNEIREKILCNKYTMNEQLPDEMTLAKQFACSRMTIKKALDLLVSEGLIFRKRGQGTFVLSRGSSKRKLIVPERDIRGLTKISEDAHSTIDSRIIHFKLEFANEFLAEKLQVALQSPVYNIYRLRIIDGKPYVLEQTYMSTDVIPGITEDILQKSIYNYIEGKLGLHIASATKILRASSSSENEQHYLQLLPTEPVFEVEQVAYLDNGTPFEYSISRHRYDLFEFNSFALRHSS	not soluble
GSHMPSRRMLHTMIRVGDLDRSIKFYTERLGMKVLRKWDVPEDKYTLVFLGYGPEMSSTVLELTYNYGVTSYKHDEAYGHIAIGVEDVKELVADMRKHDVPIDYEDESGFMAFVVDPDGYYIELLNEKTMMEKAEADMKEQGTA	soluble
MFFIGIFGIENKQKEVKQLENIYCKTCSTRTMGTLIKSYEYFHIFFIPIFRWNEKYYVMCKRCNSIYEISKEKGKAIENGEINEVNLEDMTLIQEGQVYGKRAVKKVCPNCGKTVDGDYNYCPYCGSEILEHHHHHH	not soluble
DQALSGQLRIGASDTIGNQVAPYLLSEFRQQTNHRSQSLFISNSAQICDMLTDYELDIALIEGKTLHPELQSTQFSEDEMCVICAPDYPAAHEGPVNLTELENSEWILREAGSGSREFFMRVVAPRLEHWHEAFQLNTTEAL	not soluble
MSAATPLIVQQAEAEQLLARIDVLQAMRQLFLDLAAGQALQPAQQLVEFPAGRGDFINYLGVLAQEQVYGVKTSPYIVREQGPLVTAWTLLMSMQTGQPLLLCDAARLTTARTAATTAVAVDALAPAEACRLALIGSGPVAHAHLQYVKGLRDWQGVRVHSPCLDERRLQSLRAIDPRAEAAGSLEEALDEADVILLCTSSARAVIDPRQLKRPALVTSISTNAPRAHEVPAESLAAMDVYCDYRHTTPGSAGEMLIAAEQHGWSPEAIRGDLAELLSAQAPRPEYRRPAFFRSIGLGLEDVALANALYRLRQAG	not soluble
